Reported half-life values for a set of compounds
Protocol Description: Pharmacokinetic evaluation in mice (IV and PO)
Assay type: in vivo, female Balb/c mice
Measurement Parameters: female, Balb/c, mouse, plasma; IV 0.2 mg/kg
Experimental: Experiment process: 0.04 mg/mL of a clarified solution of the test compound in 5% DMSO/10% Solutol solution/85% water was injected into female Balb/c mice (overnight fasting, 7-9 weeks of age) via tail vein, with dosage of 0.2 mg/kg. […] Plasma concentrations were detected by LC-MS/MS, and relevant pharmacokinetic parameters were calculated using WinNonlin™ Version 6.3 (Pharsight, Mountain View, CA) pharmacokinetic software with a non-compartmental model linear logarithmic trapezoid method.

As a guide, the following entries are already answered.
CCn1c(CO)nn(-c2cc(O[C@@H](C)C(F)(F)F)c(/C(F)=C/c3cccnc3OC)cc2F)c1=O :: 6.83 h
CCn1c(CO)nn(-c2cc(O[C@@H](C)C(F)(F)F)c(/C(F)=C/c3ncccc3Cl)cc2F)c1=O :: 5.83 h
CCn1c(CO)nn(-c2cc(O[C@@H](C)C(F)(F)F)c(/C(F)=C/c3cccnc3Cl)cc2F)c1=O :: 9.68 h

Below: the item to evaluate.
Exam item: Which value of half-life has been reported for CCn1c(CO)nn(-c2cc(O[C@@H](C)C(F)(F)F)c(/C(F)=C/c3cccnc3C(F)F)cc2F)c1=O in the records?
Marked response: 10.4 h

====

Protocol Description: Pharmacokinetic evaluation in mice (IV and PO)
Format: in vivo, female Balb/c mice
Measurement Parameters: female, Balb/c, mouse, plasma; PO 1 mg/kg
Reported half-life values for a set of molecules
Write the number in h without appending the unit.

CCn1c(CO)nn(-c2cc(O[C@@H](C)C(F)(F)F)c(/C(F)=C/c3cccnc3OC)cc2F)c1=O [Compound 6] :: 9.19

Exam item: Which value of half-life has been reported for CCn1c(CO)nn(-c2cc(O[C@@H](C)C(F)(F)F)c(/C(F)=C/c3ncccc3Cl)cc2F)c1=O [Compound 5] in the records?
Marked response: 5.36

Exam item: Which value of half-life has been reported for CCn1c(CO)nn(-c2cc(O[C@@H](C)C(F)(F)F)c(/C(F)=C/c3cccnc3Cl)cc2F)c1=O [Compound 26] in the records?
Marked response: 14.8

Exam item: Which value of half-life has been reported for CCn1c(CO)nn(-c2cc(O[C@@H](C)C(F)(F)F)c(/C(F)=C/c3cccnc3C(F)F)cc2F)c1=O [Compound 39] in the records?
Marked response: 8.86

====

System: human peripheral blood mononuclear cells
Protocol Description: Proliferation inhibition of peripheral blood mononuclear cells (flow cytometry)
Format: cell-based
Measurement Parameters: PBMC, PHA-M 5 μg/mL stimulation, 48 hours
Metric: IC50 (nM)
Write the number in nM without appending the unit.

As a guide, the following entries are already answered.
CCn1c(CO)nn(-c2nc(O[C@@H](C)C(F)(F)F)c(/C=C/c3c(F)cccc3Cl)cc2F)c1=O :: 5.9
CCn1c(CO)nn(-c2nc(O[C@@H](C)C(F)(F)F)c(/C(F)=C/c3ncccc3Cl)cc2F)c1=O :: 2
CCn1c(CO)nn(-c2cc(O[C@@H](C)C(F)(F)F)c(/C(F)=C/c3cnccc3Cl)cc2F)c1=O :: 8.4
CCn1c(CO)nn(-c2cc(O[C@@H](C)C(F)(F)F)c(/C(F)=C/c3cccnc3Cl)cc2F)c1=O :: 4.6
CCn1c(CO)nn(-c2cc(O[C@@H](C)C(F)(F)F)c(/C(F)=C/c3ncccc3Cl)cc2F)c1=O :: 0.8

Below: the item to evaluate.
Exam item: Form entry - test system: human peripheral blood mononuclear cells; read-out: IC50; molecule: CCn1c(CO)nn(-c2cc(O[C@@H](C)C(F)(F)F)c(/C(F)=C/c3cccnc3C(F)F)cc2F)c1=O
Marked response: 14.4
